test system: UACC-62; assay: NCI tumour cell line growth inhibition, 48 h
The source made the active and inactive calls. No stated cut-off is given here; in the data, active = GI50 up to about 1.1 µM and inactive = higher.
Metric Name: GI50

// below: answered compounds
CCCc1cn2c(/C=N/NC(=N)N)c(-c3ccc(Cl)c([N+](=O)[O-])c3)nc2s1	1.95 µM (inactive)
CC(=O)NNC1=NN(C(C)=O)C2(S1)C(=O)Nc1ccccc12 (stereo not given)	> 100 µM (inactive)

Next compound, please.
Prompt: Which measured GI50 value corresponds to Cc1ccccc1-c1nc2c(C(=O)NCCN(C)C)cccc2[nH]1 ?
Completion: 40.3 µM (inactive)

###

tested on: EKVX; test: NCI tumour cell line growth inhibition, 48 h
The source made the active and inactive calls. No stated cut-off is given here; in the data, active = GI50 up to about 1.1 µM and inactive = higher.
Metric Name: GI50

// below: answered compounds
O=C(O)Cn1nnc2c(=O)[nH][nH]c(=O)c21	> 100 µM (inactive)
c1ccc([P+](Cc2ccc(C[P+](c3ccccc3)(c3ccccc3)c3ccccc3)cc2)(c2ccccc2)c2ccccc2)cc1	21.8 µM (inactive)
CC1=C(C2=C(C)C(=O)C(=O)c3cc(C)ccc32)c2ccc(C)cc2C(=O)C1=O	0.28 µM (active)

Prompt: Which measured GI50 value corresponds to CCOC(=O)C1CCC(=O)N1C(=O)c1ccc(Cl)cc1 (configuration not stated) ?
Completion: > 100 µM (inactive)

Prompt: Which measured GI50 value corresponds to Cc1ccc(NC(=O)c2ccc(OP(=O)(O)Nc3ccc(C)cc3)cc2)cc1 ?
Completion: > 100 µM (inactive)

Prompt: Which measured GI50 value corresponds to CN(C)CCNc1ccc([N+](=O)[O-])c2nc3ccccc3c(N)c12 ?
Completion: 0.607 µM (active)

Prompt: Which measured GI50 value corresponds to COc1cc(Cc2ccc3c(c2C#N)N(C)c2ccccc2S3)cc(OC)c1OC ?
Completion: 40.8 µM (inactive)
